target: CDK8/Cyclin C (Homo sapiens, UniProt P49336); assay: Inhibition of CDK8/Cyclin C (unknown origin) using RBER-IRStide as substrate by radiometric assay; assay type: protein-complex assay
Sequence (P49336 whole entry): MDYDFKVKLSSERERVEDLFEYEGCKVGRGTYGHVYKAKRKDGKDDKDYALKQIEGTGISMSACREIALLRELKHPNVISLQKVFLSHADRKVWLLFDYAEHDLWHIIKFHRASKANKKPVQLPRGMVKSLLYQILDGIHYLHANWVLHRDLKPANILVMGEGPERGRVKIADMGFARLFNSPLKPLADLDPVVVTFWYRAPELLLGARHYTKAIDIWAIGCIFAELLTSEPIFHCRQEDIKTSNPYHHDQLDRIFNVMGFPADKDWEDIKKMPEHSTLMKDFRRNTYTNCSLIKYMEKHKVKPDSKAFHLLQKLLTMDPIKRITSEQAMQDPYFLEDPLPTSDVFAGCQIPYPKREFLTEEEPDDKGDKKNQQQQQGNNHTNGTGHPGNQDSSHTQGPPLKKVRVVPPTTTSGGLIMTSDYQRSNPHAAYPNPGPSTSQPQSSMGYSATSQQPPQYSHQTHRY
Sequence (P24863 whole entry, further chain): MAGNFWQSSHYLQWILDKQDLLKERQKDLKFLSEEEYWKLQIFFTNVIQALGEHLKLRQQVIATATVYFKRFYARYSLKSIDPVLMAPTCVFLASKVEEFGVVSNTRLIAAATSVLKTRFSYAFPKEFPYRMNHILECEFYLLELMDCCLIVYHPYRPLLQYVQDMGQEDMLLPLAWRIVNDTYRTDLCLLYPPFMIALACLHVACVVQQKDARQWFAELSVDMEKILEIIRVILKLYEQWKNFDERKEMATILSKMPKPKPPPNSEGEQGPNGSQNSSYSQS
Quantity Measured: IC50 (nM)
A number alone suffices; assume nM.

Below: 2 compounds and their reported IC50.
CCCNc1ncnc2ccc(Br)cc12 : 6100
N#Cc1ccc2ncnc(NCCc3ccccc3)c2c1 : 640

Now look at this entry.
What does the data say about its IC50? Entry: N#Cc1ccc2ncnc(NCCc3ccc4ccccc4c3)c2c1 740

###

Overview of reported log10(IC50) across a group of molecules:
assay: Antiproliferative activity against HUVEC cells assessed as inhibition of cell growth; format: toxicity, cell-based; settings: human
Transform log10 | Measure IC50 | Unit nM

Below: 5 molecules and their reported log10(IC50).
CN(C)[C@H]1C[C@@]23CC[C@@]4(O2)C(=CC[C@@]2(C)[C@H]4C[C@H](O)[C@@H]2c2ccc4ccncc4c2)C=C3[C@@H](O)[C@@H]1O : 3.04
CN(C)[C@H]1C[C@@]23CC[C@@]4(O2)C(=CC[C@@]2(C)[C@H]4CC(=O)[C@]2(O)c2ccc4ccncc4c2)C=C3[C@@H](O)[C@@H]1O : 2.18
CN(C)[C@@H]1C=CC2=CC3=CC[C@]4(C)[C@@H](c5ccc6ccncc6c5)CC[C@H]4[C@@]34CC[C@]2(C1)O4 : 0.90
Cc1cnccc1CC[C@@H](C)[C@H]1CC[C@@H]2[C@]1(C)CCC1=CC3=CC[C@@H](N(C)C)C[C@]34CC[C@@]12O4 : 2.54
CN(C)[C@H]1C[C@@]23CC[C@@]4(O2)C(=CC[C@]2(C)[C@@H](c5ccc6ccncc6c5)C(=O)C[C@H]24)C=C3[C@@H](O)[C@@H]1O : 1.28

What does the data say about its log10(IC50)? Entry: CC1CN(C)CCC1CCC(C)[C@H]1CC[C@@H]2[C@]1(C)CC=C1C=C3C=C[C@@H](N(C)C)C[C@]34CC[C@@]12O4 (stereo partly drawn) 3.28

What does the data say about its log10(IC50)? Entry: Cc1cnccc1/C=C/[C@@H](C)[C@H]1CC[C@@H]2[C@]1(C)CCC1=CC3=CC[C@@H](N(C)C)C[C@]34CC[C@@]12O4 2.90

What does the data say about its log10(IC50)? Entry: CC1CN(C)CCC1CC[C@@H](C)[C@H]1CC[C@@H]2[C@]1(C)CCC1=CC3=CC[C@@H](N(C)C)C[C@]34CC[C@@]12O4 (stereo partly drawn) 2.65

###

target: UniProt P49336
Quantity Measured: Kd (µM)
A number alone suffices; assume µM.

What Kd appears in the records for this compound with UniProt P49336? Cc1ccc(-n2nc(C(C)(C)C)cc2NC(N)=O)cc1 3.24
